# SYSTEM: human 11β-HSD1 (Homo sapiens)
# Construct: expressed in transfected cells; host or cells: CHO cells (microsomes)
# Sequence (P28845 whole entry): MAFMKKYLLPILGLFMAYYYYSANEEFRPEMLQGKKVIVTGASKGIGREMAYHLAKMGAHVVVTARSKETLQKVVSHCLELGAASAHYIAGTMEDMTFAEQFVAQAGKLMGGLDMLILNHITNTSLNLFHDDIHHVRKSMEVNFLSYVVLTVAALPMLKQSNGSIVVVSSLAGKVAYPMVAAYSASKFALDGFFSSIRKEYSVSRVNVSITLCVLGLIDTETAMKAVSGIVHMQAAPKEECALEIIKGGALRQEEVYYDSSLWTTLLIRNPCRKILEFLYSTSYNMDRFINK
# EXPERIMENTAL PROTOCOL: Biological Test Example 1: inhibition of microsomal preparation of 11β-HSD1 (SPA)
# Format: biochemical
# EXPERIMENTAL SETUP: at 100 nM; read-out: Average % inhibition at 100 nM
MEASURED ENDPOINT: inhibition at 0.1 µM (%)
Give just the number in %; leave the unit off.

Record C[C@@H](c1ccc(Br)cc1)N1CC[C@](CC(C)(C)C#N)(c2ccccc2)NC1=O has human 11β-HSD1 (Homo sapiens) inhibition at 0.1 µM equal to 95.8

Record C[C@@H](c1ccc(-c2ccc(F)cc2F)cc1)N1CC[C@@](CCCO)(c2ccc(F)cc2)NC1=O (single isomer, unassigned) [Example 7 Isomer 2] has human 11β-HSD1 (Homo sapiens) inhibition at 0.1 µM equal to 71

Record C[C@@H](c1ccc(-c2ccc(F)cc2F)cc1)N1CC[C@](CCO)(c2ccc(F)cc2)NC1=O (single isomer, unassigned) [Example 6 Isomer 1] has human 11β-HSD1 (Homo sapiens) inhibition at 0.1 µM equal to 97.2

Record C[C@@H](c1ccc(Cl)cc1)N1CC[C@](CCO)(c2ccc(F)cc2)NC1=O has human 11β-HSD1 (Homo sapiens) inhibition at 0.1 µM equal to 96.9

Record C[C@@H](c1ccc(Br)cc1)N1CC[C@](CC(C)(C)O)(c2ccccc2)NC1=O has human 11β-HSD1 (Homo sapiens) inhibition at 0.1 µM equal to 94.4

Record C[C@@H](C1CCCCC1)N1CC[C@](CCCO)(c2ccccc2)NC1=O has human 11β-HSD1 (Homo sapiens) inhibition at 0.1 µM equal to 96.1

Record C[C@@H](c1ccc(-c2ccc(F)cc2)cc1)N1CC[C@@](CCCO)(c2ccc(F)cc2)NC1=O (single isomer, unassigned) [Example 10 Isomer 2] has human 11β-HSD1 (Homo sapiens) inhibition at 0.1 µM equal to 54.2

Record C[C@@H](c1ccc(Br)cc1)N1CC[C@](CCCO)(c2ccc(F)cc2)NC1=O has human 11β-HSD1 (Homo sapiens) inhibition at 0.1 µM equal to 97.5

Record C[C@@H](c1ccc(-c2ccc(F)cc2)cc1)N1CC[C@](CCCO)(c2ccccc2)NC1=O (single isomer, unassigned) [Example 14 Isomer 1] has human 11β-HSD1 (Homo sapiens) inhibition at 0.1 µM equal to 95.5

Record C[C@@H](c1ccc(-c2ccn(C)c(=O)c2)cc1)N1CC[C@](CC(C)(C)O)(c2ccccc2)NC1=O has human 11β-HSD1 (Homo sapiens) inhibition at 0.1 µM equal to 93.9

Record C[C@@H](c1ccc(-c2ccc(F)cc2F)cc1)N1CC[C@@](CCO)(c2ccc(F)cc2)NC1=O (single isomer, unassigned) [Example 6 Isomer 2] has human 11β-HSD1 (Homo sapiens) inhibition at 0.1 µM equal to 47.7

Record C[C@@H](c1ccc(-c2ccc(F)cc2)cc1)N1CC[C@](CC(O)CO)(c2ccc(F)cc2)NC1=O (single isomer, unassigned) [Example 9 Isomer 1] has human 11β-HSD1 (Homo sapiens) inhibition at 0.1 µM equal to 94.5

Record C[C@@H](C1CCCCC1)N1CC[C@](CCCO)(c2ccccc2)N(C)C1=O has human 11β-HSD1 (Homo sapiens) inhibition at 0.1 µM equal to 30

Every entry's value here was drawn from patent US9079861B2.
